biological target: human class II OR identified in the library screening (Homo sapiens, UniProt Q8NGP4); assay: Confirmatory dose-response analysis of library-hit OR with cognate ligand, wild-type vs C-terminal domain SEQ ID NO: 221 (Table 17);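 note: Wild-type receptor sequences expressed from the pcDNA3.1(+) vector and compared with the C-terminally modified receptors in dose-response tests using each receptor's cognate ligand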
PARAMETER_MEASURED: EC50 (µM)
# value in µM; strip the unit string

(Q) # get_value(readout='EC50', item= CC1=C(O)C(=O)C(C)O1 (stereo not shown) )
(A) 65.3

---

Target: OR7D4 (Homo sapiens, UniProt Q8NG98, D296E/E302K/G299D)
Construct: Improved functional expression of modified OR-genes containing the truncated, optimized C-terminus; expressed in transfected cells
Sequence (Q8NG98 with tags, fused parts or gaps D296E/G299D/E302K): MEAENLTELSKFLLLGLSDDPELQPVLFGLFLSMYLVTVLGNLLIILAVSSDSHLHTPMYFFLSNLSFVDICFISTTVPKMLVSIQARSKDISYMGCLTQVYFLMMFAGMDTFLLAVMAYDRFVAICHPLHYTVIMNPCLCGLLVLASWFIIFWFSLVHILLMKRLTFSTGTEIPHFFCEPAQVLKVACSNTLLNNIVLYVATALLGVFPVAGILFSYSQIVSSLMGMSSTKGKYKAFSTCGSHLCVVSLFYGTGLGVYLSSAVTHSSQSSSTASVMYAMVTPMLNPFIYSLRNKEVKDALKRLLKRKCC
Test: CRE-luciferase assay, HEK cells expressing OR7D4 (wild-type / modified C-terminus)
Format: cell-based
Conditions: OR7D4 variant, Androstenone
Outcome: True for EC2 Fold-improvement vs. wild-type of at least 200; False for anything lower.

Below are worked cases with known answers.
>  <SUBSTANCE>
SEQ ID NO: 282 (RNRDVKKAIRRLFRRRCC; source 1..18: note = C-terminal domain sequence)

>  <TARGET_OR_TEST_SYSTEM>
OR7D4 (Homo sapiens, UniProt Q8NG98, D296E/E302K/G299D)

>  <LABEL>
True

$$$$
>  <SUBSTANCE>
SEQ ID NO: 268 (RNREVRKALRRIIRKRCC; source 1..18: note = C-terminal domain sequence)

>  <TARGET_OR_TEST_SYSTEM>
OR7D4 (Homo sapiens, UniProt Q8NG98, D296E/E302K/G299D)

>  <LABEL>
True

$$$$
>  <SUBSTANCE>
SEQ ID NO: 291 (RNKELKKAIKRLIRRKCC; source 1..18: note = C-terminal domain sequence)

>  <TARGET_OR_TEST_SYSTEM>
OR7D4 (Homo sapiens, UniProt Q8NG98, D296E/E302K/G299D)

>  <LABEL>
False

$$$$
>  <SUBSTANCE>
SEQ ID NO: 264 (RNKDIKKAVKKLIKKKCC; source 1..18: note = C-terminal domain sequence)

>  <TARGET_OR_TEST_SYSTEM>
OR7D4 (Homo sapiens, UniProt Q8NG98, D296E/E302K/G299D)

>  <LABEL>
False

$$$$
>  <SUBSTANCE>
SEQ ID NO: 295 (RNRELKKALRRLLRRRCC; source 1..18: note = C-terminal domain sequence)

>  <TARGET_OR_TEST_SYSTEM>
OR7D4 (Homo sapiens, UniProt Q8NG98, D296E/E302K/G299D)

>  <LABEL>
False

$$$$

(Q) Please tell me: is the substance SEQ ID NO: 266 (RNKELRKAVRKIIKKKCC; source 1..18: note = C-terminal domain sequence) at or over 200 in terms of EC2 Fold-improvement vs. wild-type?
(A) False

(Q) Assess whether reported EC2 Fold-improvement vs. wild-type for SEQ ID NO: 281 (RNKEIKKAIKKIIKKRCC; source 1..18: note = C-terminal domain sequence) sits at 200 or higher.
(A) False

---

Target: OR5B12 (Homo sapiens, UniProt Q96R08, C141R)
Construct: Improved functional expression of modified OR-genes containing the truncated, optimized C-terminus; expressed in transfected cells; host or cells: HEK293T stably expressing human RTP1S(V227I) and RTP2(L220R)
Sequence (Q96R08 with tags, fused parts or gaps C141R): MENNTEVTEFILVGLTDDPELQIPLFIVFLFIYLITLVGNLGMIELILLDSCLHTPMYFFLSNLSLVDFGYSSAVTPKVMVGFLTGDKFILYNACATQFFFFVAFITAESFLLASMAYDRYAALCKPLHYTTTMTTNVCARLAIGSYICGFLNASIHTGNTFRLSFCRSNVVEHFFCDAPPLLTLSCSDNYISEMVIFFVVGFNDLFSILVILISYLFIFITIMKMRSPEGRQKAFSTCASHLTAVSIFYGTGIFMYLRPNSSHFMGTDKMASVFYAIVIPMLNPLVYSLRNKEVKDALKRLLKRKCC
Assay: CRE-luciferase assay, HEK293T cells expressing OR5B12 (wild-type / modified C-terminus)
Format: cell-based
Conditions: changed C-term. SEQ ID NO: 86
compounds and their reported pEC50
In textbook form, pEC50 equals minus log to base ten of the concentration in mol/L.

>  <COMPOUND>
CCCCCC1C(=O)CCC1CC(=O)OC (centres unmarked) [Hedione, reference compound]

>  <PARAMETER_MEASURED>
pEC50

>  <REPORTED_MEASUREMENT>
4.23

$$$$

Please find the next compound below.
(Q) Can you look up the measured pEC50 of CCCCCC1C(=O)CCC1CC(=O)OC (racemic) [Hedione HC, reference compound] for me?
(A) 4.74

---

Reported Fold induction luciferase values are given for each entry in this list.
Biological target: OR7D4 (Homo sapiens, UniProt Q8NG98, D296E/E302K/G299D)
Construct: Improved functional expression of modified OR-genes containing the truncated, optimized C-terminus; expressed in transfected cells
Sequence (Q8NG98 with tags, fused parts or gaps D296E/G299D/E302K): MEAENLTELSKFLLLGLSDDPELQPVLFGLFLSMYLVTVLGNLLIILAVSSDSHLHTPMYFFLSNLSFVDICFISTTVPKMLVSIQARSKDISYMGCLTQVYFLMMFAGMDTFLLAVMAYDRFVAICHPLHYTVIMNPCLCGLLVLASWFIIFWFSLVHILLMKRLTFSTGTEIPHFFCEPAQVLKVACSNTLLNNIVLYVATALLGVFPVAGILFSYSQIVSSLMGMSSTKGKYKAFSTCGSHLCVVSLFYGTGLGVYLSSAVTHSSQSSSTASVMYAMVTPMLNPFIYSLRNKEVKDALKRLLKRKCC
Experiment: CRE-luciferase assay, HEK cells expressing OR7D4 (wild-type / modified C-terminus)
Assay type: cell-based
Settings: OR7D4 variant, 1 μM Androstenone
Reply with the value as a number alone.

>  <SUBSTANCE>
SEQ ID NO: 264 (RNKDIKKAVKKLIKKKCC; source 1..18: note = C-terminal domain sequence)

>  <REPORTED_MEASUREMENT>
23.26

$$$$
>  <SUBSTANCE>
SEQ ID NO: 285 (RNKELKKALRRLIGRRCC; source 1..18: note = C-terminal domain sequence)

>  <REPORTED_MEASUREMENT>
22.10

$$$$
>  <SUBSTANCE>
SEQ ID NO: 288 (RNKEVRKALKKLFGKKCC; source 1..18: note = C-terminal domain sequence)

>  <REPORTED_MEASUREMENT>
28.81

$$$$

Note: attention shifts to another entry.
(Q) Returns the measured Fold induction luciferase for the input substance. Input: SEQ ID NO: 305 (RNKDLKKAVKKLFGRKCC; source 1..18: note = C-terminal domain sequence)
(A) 10.13

---

Target: OR7D4 (Homo sapiens, UniProt Q8NG98, D296E/E302K/G299D)
Construct: Improved functional expression of modified OR-genes containing the truncated, optimized C-terminus; expressed in transfected cells
Sequence (Q8NG98 with tags, fused parts or gaps D296E/G299D/E302K): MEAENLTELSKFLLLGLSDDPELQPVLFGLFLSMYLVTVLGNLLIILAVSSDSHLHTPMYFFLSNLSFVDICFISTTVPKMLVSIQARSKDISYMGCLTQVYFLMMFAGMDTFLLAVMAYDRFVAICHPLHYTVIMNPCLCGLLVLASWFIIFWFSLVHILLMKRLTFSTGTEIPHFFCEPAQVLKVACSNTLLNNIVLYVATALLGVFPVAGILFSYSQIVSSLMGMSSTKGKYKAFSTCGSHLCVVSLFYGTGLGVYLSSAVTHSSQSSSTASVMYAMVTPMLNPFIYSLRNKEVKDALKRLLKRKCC
Experiment: CRE-luciferase assay, HEK cells expressing OR7D4 (wild-type / modified C-terminus)
Assay type: cell-based
Conditions: OR7D4 variant, Androstenone
PARAMETER_MEASURED: EC2 (concentration for 2-fold luciferase induction)

Below: 3 substances and their reported EC2 (concentration for 2-fold luciferase induction).
>  <SUBSTANCE>
SEQ ID NO: 288 (RNKEVRKALKKLFGKKCC; source 1..18: note = C-terminal domain sequence)

>  <REPORTED_MEASUREMENT>
0.006 µM

$$$$
>  <SUBSTANCE>
SEQ ID NO: 275 (RNRDVRKAIRKLLKRKCC; source 1..18: note = C-terminal domain sequence)

>  <REPORTED_MEASUREMENT>
0.005 µM

$$$$
>  <SUBSTANCE>
SEQ ID NO: 281 (RNKEIKKAIKKIIKKRCC; source 1..18: note = C-terminal domain sequence)

>  <REPORTED_MEASUREMENT>
0.029 µM

$$$$

Now turn to the next substance.
(Q) Look up EC2 (concentration for 2-fold luciferase induction): SEQ ID NO: 300 (RNRDIRKAVKKLFGKKCC; source 1..18: note = C-terminal domain sequence)
(A) 0.020 µM
